Reference for the values: paper PMC5796027

Target: mushroom tyrosinase (Agaricus bisporus, UniProt C7FF04)
Sequence (C7FF04 1-392): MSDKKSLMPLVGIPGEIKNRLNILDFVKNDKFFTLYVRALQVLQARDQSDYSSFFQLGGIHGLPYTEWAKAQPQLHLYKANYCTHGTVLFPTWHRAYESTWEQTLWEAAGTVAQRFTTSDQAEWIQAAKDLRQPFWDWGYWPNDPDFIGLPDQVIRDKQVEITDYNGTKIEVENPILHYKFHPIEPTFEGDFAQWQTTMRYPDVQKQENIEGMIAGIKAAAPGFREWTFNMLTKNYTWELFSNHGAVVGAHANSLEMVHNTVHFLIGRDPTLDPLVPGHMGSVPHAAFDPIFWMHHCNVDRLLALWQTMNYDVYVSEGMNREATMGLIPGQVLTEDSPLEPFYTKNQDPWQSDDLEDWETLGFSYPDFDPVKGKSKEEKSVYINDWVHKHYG
Assay: Enzyme inhibitory kinetics with nonlinear fitting of Michaelis-Menten models
Format: biochemical
Conditions: nonlinear data fitting, competitive model; read-out: kinetically fitted Ki
Method: Enzyme activity and kinetics experiments with inhibitors—All of the reagents used in this study were purchased from ChemBridge (San Diego, CA, USA), Sigma-Aldrich (St. Louis, MO, USA), or Tokyo Chemical Industry (Tokyo, Japan). […] The IC50 was evaluated by analysing different concentrations of each inhibitor. […]
pKi: −log10 of the molar value.

smiles_record: OC[C@H]1O[C@@H](n2cnc3c(S)ncnc32)[C@H](O)[C@@H]1O
pKi: 4.85
//
smiles_record: Nc1nc2nc[nH]c2c(=S)[nH]1
pKi: 4.40
//
smiles_record: Sc1ncnc2nc[nH]c12
pKi: 4.54
